Experiment: Rainbow trout feeding trial: astaxanthin levels in fillets before and after freezing and smoking
Type: in vivo
Conditions: rainbow trout, fillet (flesh), oral, Control treatment, averaged over three fillet zones, read-out: HPLC astaxanthin level Average
MEASURE NAME: concentration at 63 days (ng/g)
Please give a number only; it is taken to be in ng/g.

[in] Suppose we examine the compound CC1=C(/C=C/C(C)=C/C=C/C(C)=C/C=C/C=C(C)/C=C/C=C(C)/C=C/C2=C(C)C(=O)C(O)CC2(C)C)C(C)(C)CC(O)C1=O (stereo not drawn) [Synthetic, 3,3′-dihydroxy-β,β-carotene-4,4′-dione] ; what concentration at 63 days value has been reported?
[out] 15100
